Molecular target: FLT3-ITD (Homo sapiens)
Assay: FLT3-ITD recombinant enzyme kinase assay (AlphaScreen)
Conditions: 8 pt; read-out: FLT3_ITD 8 pt: IC50
Items are presented alongside their recorded IC50.

Answered examples (3):
# smilesCode, readoutLabel, observed
records = [
    ("CCOc1n[nH]c2ncc(-c3ccc(CC(=O)Nc4cnc(OC)c(C(F)(F)F)c4)cc3)cc12", "IC50", "0.0001 to 10 µM"),
    ("Cn1cc(Nc2ncc(-c3ccc(CC(=O)Nc4ccc(C(C)(C)C#N)nc4)cc3)cn2)cn1", "IC50", "0.0001 to 10 µM"),
    ("Cc1ncc(NC(=O)Cc2ccc(-c3cnc(Nc4cn(C)cn4)nc3)cc2F)cc1C(F)(F)F", "IC50", "0.0001 to 10 µM"),
]

We now examine a further compound.
Just so you know, measured IC50 for COc1ncc(NC(=O)Cc2ccc(-c3cnc4[nH]cc(Cl)c4n3)cc2F)cc1C(F)(F)F came out at 0.0001 to 10 µM
